system: OVCAR-3 ovarian; assay: NCI tumour cell line growth inhibition, 48 h
TGI values, listed per item

| structure string | experimental target | TGI |
| --- | --- | --- |
| Nc1ccccc1C#C/C=C\C#Cc1cnccn1 | OVCAR-3 ovarian | > 100 µM |
| O=C(Nc1ccc(-n2cc(-c3ccncc3)c(-c3ccc(O)c(Cl)c3)n2)cc1)c1cc(C(F)(F)F)cc(C(F)(F)F)c1 | OVCAR-3 ovarian | > 25 µM |
| Cc1ccc(/C(=N/NS(=O)(=O)c2ccc([N+](=O)[O-])cc2)Sc2cc(Cl)c(C)cc2S(N)(=O)=O)cc1 | OVCAR-3 ovarian | > 100 µM |
| O=C(Nc1c(Cl)cccc1Cl)c1c(Cl)c(Cl)c(Cl)c(Cl)c1-c1nc2ccccc2[nH]1 | OVCAR-3 ovarian | > 100 µM |
| CC1(C)OC(=O)C(c2cccs2)C(=O)O1 | OVCAR-3 ovarian | > 100 µM |
